Tested System: Cyclin-dependent kinase 2 (Homo sapiens, UniProt P24941)
Assay Procedure: Binding affinity to N-terminal His-tagged recombinant human CDK2 (1 to 298 amino acid residues) expressed in Escherichia coli BL21 assessed as inhibition of interaction with cyclin A3 by measuring HHASPRK phosphorylation at 100 uM by ADP-Glo Max assay relative to control
# inhibition annotations
Just the number please, in %, no unit attached.

Q: Please give measured inhibition of the following entry: CN1C(=O)c2cccc3c(S(=O)(=O)NCCC(=O)O)ccc1c23
A: 5.54

Q: Indicate its recorded inhibition; the compound in question is CCOc1cc(C(=O)Nc2ccc(S(=O)(=O)Nc3nc(C)cc(C)n3)cc2)cc(OCC)c1OCC
A: 62.3

Q: Indicate the recorded inhibition value for this compound: Cc1cc(C)nc(NS(=O)(=O)c2ccc(NC(=O)CCCCC(=O)Nc3ccc(S(=O)(=O)Nc4nc(C)cc(C)n4)cc3)cc2)n1
A: 38

Q: Please look at this compound and report its inhibition: CCN(C(=O)CCNC(=O)Cn1cnc2ccccc2c1=O)c1cccc(C(F)(F)F)c1
A: 8.39
